Origin of values: patent US8236826B2

property_measured: melting point

                         structure_notation           result
0  CCN(CC(=O)N1CCN(Cc2ccc3c(c2)OCO3)CC1)c1ccc(Oc2ccc(NC(=O)c3ccc(C(F)(F)F)cc3)cn2)c(F)c1    170 to 172 °C
1  Cc1cc(N2CCCN(Cc3ccc4c(c3)OCO4)C2=O)ccc1Oc1ccc(NC(=O)c2ccc(C(F)(F)F)cc2)cn1    165 to 166 °C
2  Cc1cc(N2CCCN(CC(=O)N3CCN(Cc4ccc5c(c4)OCO5)CC3)C2=O)ccc1Oc1ccc(NC(=O)c2ccc(C(F)(F)F)cc2)cn1  182 to 183.5 °C

Q. Which value of melting point has been reported for O=C(Nc1ccc(Oc2ccc(CCC(=O)N3CCN(c4cccnc4)CC3)cc2)c(F)c1)c1ccc(Cl)c(Cl)c1 in the records?
A. 183 to 185 °C

----------
Counter-ions that a name gives are not always drawn.
property_measured: melting point

In the examples that follow, each entry is paired with its recorded melting point.
>>> df
                                   molecule         result
0  O=C(CN1CCOCC1)c1ccc(Oc2ccc(NC(=O)c3ccc(Cl)c(Cl)c3)cc2F)cc1  177 to 178 °C
1  CCN(CC(=O)N1CCN(Cc2ccc3c(c2)OCO3)CC1)c1ccc(Oc2ccc(NC(=O)c3ccc(C(F)(F)F)cc3)cn2)cc1  178 to 180 °C
2  Cc1cc(N(C)CC(=O)N2CCN(Cc3ccccc3)CC2)ccc1Oc1ccc(NC(=O)c2ccc(C(F)(F)F)cc2)cn1  110 to 111 °C
3  O=C(Nc1ccc(Oc2ccc(C(=O)N3CCN(c4ccccn4)CC3)cc2)nc1)c1ccc(C(F)(F)F)cc1  222 to 224 °C

For every item in the list below, what is its measured melting point?
1. Cc1cc(N(C)CC(=O)N2CCN(Cc3ccc4c(c3)OCO4)CC2)ccc1Oc1ccc(NC(=O)c2ccc(-n3cccc3)cc2)cn1
2. CCN(CC(=O)N1CCN(Cc2ccc3c(c2)OCO3)CC1)c1ccc(Oc2ccc(NC(=O)c3ccc(Cl)c(Cl)c3)cn2)c(F)c1
3. CCN(CC(=O)N1CCN(Cc2ccccc2)CC1)c1ccc(Oc2ccc(NC(=O)c3ccc(C(F)(F)F)cc3)cn2)c(C)c1 (as salt: maleate)

A.
["163.1 to 166.5 °C", "149 to 151 °C", "165 to 167 °C"]

----------
Would you kindly list IC50 for each of these compounds?
Tested on: human breast cancer cells (ZR-75-1)
Assay: Anti-proliferative effect on human breast cancer cells, sulforhodamine B method
Type: cell-based
Settings: ZR-75-1 cells

>>> print(df.to_string())
                                   compound                          measured_on  property_measured    result
0  Cc1cc(N(C)CC(=O)N2CCN(Cc3ccc4c(c3)OCO4)CC2)ccc1Oc1ccc(NC(=O)c2ccc(C(F)(F)F)cc2)cn1 [Example 1503]  human breast cancer cells (ZR-75-1)               IC50  < 100 nM

Next up:
Q. Which value of IC50 has been reported for O=C(Nc1ccc(Oc2ccc(CCC(=O)N3CCN(Cc4ccc5c(c4)OCO5)CC3)cc2)nc1)c1ccc(C(F)(F)F)cc1 [Example 1039] in the records?
A. < 1000 nM

----------
property_measured: melting point

For every item in the list below, what is its measured melting point?
1. Cc1cc(N2CCCN(Cc3ccc4c(c3)OCO4)C2=O)ccc1Oc1ccc(NC(=O)c2ccc(Cl)c(Cl)c2)cn1
2. O=C(Nc1ccc(Oc2ccc(N3CCN(C(=O)CN4CCOCC4)CC3)cc2)cc1)c1ccc(Cl)c(Cl)c1
3. COc1ccc(CN2CCCN(c3ccc(Oc4ccc(NC(=O)c5ccc(C(F)(F)F)cc5)cn4)c(C)c3)C2=O)cc1OC

A.
1: 122 to 124 °C; 2: 177 to 178 °C; 3: 155 to 157 °C

For every item in the list below, what is its measured melting point?
1. CC(=O)N(CC(=O)N1CCN(Cc2ccc3c(c2)OCO3)CC1)c1ccc(Oc2ccc(NC(=O)c3ccc(Cl)c(Cl)c3)cn2)c(C)c1
2. O=C(Nc1ccc(Oc2ccc(C(=O)N3CCOCC3)cc2)c(F)c1)c1ccc(Cl)c(Cl)c1

A.
1: 216 to 217 °C; 2: 203 to 204 °C

Q. Which value of melting point has been reported for O=C(Nc1ccc(Oc2ccc(C(=O)N3CCOCC3)cc2)cc1)c1ccc(Cl)c(Cl)c1 in the records?
A. 189 to 192 °C

----------
Tested on: human colorectal cancer cells (HCT116)
Assay: Anti-proliferative effect on human colorectal cancer cells, sulforhodamine B method
Assay type: cell-based
Details: HCT-116
pIC50: −log10 of the molar value.
property_measured: pIC50

>>> df
                                   molecule  result
0  Cc1cc(N(C)CC(=O)N2CCN(Cc3ccc4c(c3)OCO4)CC2)ccc1Oc1ccc(NC(=O)c2ccc(C(F)(F)F)cc2)cn1 [Example 1503]  > 7.00

Next up:
Q. Which value of pIC50 has been reported for O=C(Nc1ccc(Oc2ccc(CCC(=O)N3CCN(Cc4ccc5c(c4)OCO5)CC3)cc2)nc1)c1ccc(C(F)(F)F)cc1 [Example 1039] in the records?
A. > 7.00

----------
Where a name gives a salt, the structure may show the parent alone.
Would you kindly list melting point for each of these compounds?

In the examples that follow, each entry is paired with its recorded melting point.
>>> print(df.to_string())
                                   compound           result
0  Cc1cc(N(C)CC(=O)N2CCN(Cc3ccoc3)CC2)ccc1Oc1ccc(NC(=O)c2ccc(C(F)(F)F)cc2)cn1 (as salt: hydrochloride) [Example 792]  158.5 to 161 °C
1  CC(=O)N(CC(=O)N1CCN(Cc2ccc3c(c2)OCO3)CC1)c1ccc(Oc2ccc(NC(=O)c3ccc(Cl)c(Cl)c3)cn2)c(F)c1 [Example 730]    233 to 235 °C
2  COc1cc(N(C)CC(=O)N2CCN(Cc3ccoc3)CC2)ccc1Oc1ccc(NC(=O)c2ccc(C(F)(F)F)cc2)cn1 [Example 785]    160 to 164 °C
3  O=C(Nc1ccc(Oc2ccc(C3CCN(C(=O)CN4CCOCC4)CC3)cc2)cc1)c1ccc(Cl)c(Cl)c1 (as salt: hydrochloride) [Example 2571]    146 to 150 °C

Next up:
Q. Which value of melting point has been reported for O=C(C1CCN(c2ccc(Oc3ccc(NS(=O)(=O)c4ccc(Cl)c(Cl)c4)cn3)cc2)CC1)N1CCN(Cc2ccccc2)CC1 [Example 2710] in the records?
A. 185 to 189 °C

----------
Where a name gives a salt, the structure may show the parent alone.
Would you kindly list melting point for each of these compounds?

In the examples that follow, each entry is paired with its recorded melting point.
                                   compound           result
0  Cc1cc(N2CCC(CC(=O)N3CCN(Cc4ccc5c(c4)OCO5)CC3)CC2)ccc1Oc1ccc(NS(=O)(=O)c2ccc(C(F)(F)F)cc2)cn1    156 to 158 °C
1  CC(C)(C)OC(=O)N1CCN(C(=O)CCc2ccc(Oc3ccc(NC(=O)c4ccc(Cl)c(Cl)c4)cc3F)cc2)CC1    155 to 157 °C
2  O=C(Nc1ccc(Oc2ccc(N3CCN(Cc4ccccc4)C3=O)cc2)nc1)c1ccc(C(F)(F)F)cc1    203 to 204 °C
3  O=C(Nc1ccc(Oc2ccc(C3=CCN(CCCn4ccnc4)CC3)cc2)cc1)c1ccc(Cl)c(Cl)c1    169 to 171 °C
4  O=C(Nc1ccc(Oc2ccc(N3CCN(S(=O)(=O)c4ccccc4)CC3)cc2)cc1)c1ccc(Cl)c(Cl)c1    191 to 192 °C
5  CCN(CC(=O)N1CCN(Cc2ccoc2)CC1)c1ccc(Oc2ccc(NC(=O)c3ccc(C(F)(F)F)cc3)cn2)c(OC)c1    174 to 176 °C
6  CN(CC(=O)N1CCN(Cc2ccc3c(c2)OCO3)CC1)c1ccc(Oc2ccc(NC(=O)c3ccc(C(F)(F)F)cc3)cn2)c(F)c1    220 to 221 °C
7  O=C(Nc1ccc(Oc2ccc(N3CCN(C(=O)COc4ccccc4)CC3)cc2)cc1)c1ccc(Cl)c(Cl)c1    171 to 173 °C
8  Br.CN(CC(=O)N1CCN(Cc2ccc3c(c2)OCO3)CC1)c1cc(F)c(Oc2ccc(C(=O)Nc3ccc(C(F)(F)F)cc3)cn2)cc1F  224.5 to 226 °C
9  CN(CC(=O)N1CCN(Cc2ccc3c(c2)OCO3)CC1)c1ccc(Oc2ccc(NS(=O)(=O)c3ccc(Cl)c(Cl)c3)cn2)c(F)c1  185.6 to 187 °C

For every item in the list below, what is its measured melting point?
1. CCN(CC(=O)N1CCN(Cc2ccc3c(c2)OCO3)CC1)c1ccc(Oc2ccc(NS(=O)(=O)c3ccc(C(F)(F)F)cc3)cn2)c(F)c1
2. Cc1cc(N(C)CC(=O)N2CCN(Cc3ccc4c(c3)OCO4)CC2)ccc1Oc1ccc(NC(=O)c2ccc(Cl)c(Cl)c2)cn1 (as salt: hydrochloride)

A.
1: 177.8 to 180.1 °C; 2: 183 to 185 °C (dec.)

For every item in the list below, what is its measured melting point?
1. Cc1cc(N(C)CC(=O)N2CCN(C(=O)c3ccc4c(c3)OCO4)CC2)ccc1Oc1ccc(NC(=O)c2ccc(Cl)c(Cl)c2)cn1
2. Cc1cc(N(C)CC(=O)N2CCN(Cc3ccoc3)CC2)ccc1Oc1ccc(NC(=O)c2ccc(Cl)c(Cl)c2)cn1
3. CN(C(=O)CN1CCOCC1)C1CCN(c2ccc(Oc3ccc(NC(=O)c4ccc(Cl)c(Cl)c4)cc3)cc2)CC1
4. O=C(Nc1ccc(Oc2ccc(N3CCN(C(=O)COc4ccc5c(c4)OCO5)CC3)cc2)cc1)c1ccc(Cl)c(Cl)c1
5. Cc1cc(N2CCN(Cc3ccc4c(c3)OCO4)C2=O)ccc1Oc1ccc(NC(=O)c2ccc(C(F)(F)F)cc2)cn1
6. CC(=O)N(CC(=O)N1CCN(Cc2ccccc2)CC1)c1ccc(Oc2ccc(NC(=O)c3ccc(C(F)(F)F)cc3)cn2)cc1
7. CCOC(=O)c1ccc(N2CCCN(c3ccc(Oc4ccc(NC(=O)c5ccc(C(F)(F)F)cc5)cn4)c(C)c3)C2=O)cc1

A.
["133 to 135 °C", "116.5 to 118 °C", "157 to 160 °C", "116 to 118 °C", "188 to 189 °C", "161 to 162 °C", "160 to 161 °C"]
